Value source: patent US8791118B2

Kindly state melting point for each of the entries shown.

Quick one: melting point for COc1cc(Nc2cnc3ccc(NC(=O)NCCCCc4ccccc4)nc3n2)cc(OC)c1OC [Compound 139] ?
223 to 225 °C

Quick one: melting point for Nc1cccc(-c2cnc3ccc(NC(=O)NCCCCc4ccccc4)nc3n2)c1 [Compound 95] ?
200 to 203 °C

Quick one: melting point for O=C(NCCCCc1ccccc1)Nc1ccc2ncc(-c3ccc(O)c(Br)c3)nc2n1 [Compound 109] ?
238 to 241 °C

Quick one: melting point for C[C@H](CCCc1ccccc1)NC(=O)Nc1ccc2ncc(-c3ccoc3)nc2n1 [Compound 149] ?
218 to 220 °C

Quick one: melting point for `CCNC(=O)Oc1ccc(-c2cnc3ccc(NC(=O)NCCCCc4ccccc4)nc3n2)cc1` ?
198 °C

Quick one: melting point for C[C@H](CCCc1ccccc1)NC(=O)Nc1ccc2ncc(-c3ccncc3)nc2n1 [Compound 157] ?
223 to 226 °C

Quick one: melting point for C[C@H](CCCc1ccccc1)NC(=O)Nc1ccc2ncc(N3CCCCC3)nc2n1 [Compound 154] ?
171 to 174 °C

Quick one: melting point for `Cl.O=C(NCCCCc1ccccc1)Nc1ccc2ncc(N3CCNCC3)nc2n1` ?
209 to 211 °C

Quick one: melting point for CCn1cc(-c2cnc3ccc(NC(=O)NCCCCc4ccccc4)nc3n2)cn1 [Compound 108] ?
207 to 208 °C

Quick one: melting point for COc1ccc(-c2cnc3ccc(NC(=O)N[C@H](C)CCCc4ccccc4)nc3n2)cc1OC [Compound 98] ?
195 to 197 °C

Quick one: melting point for COc1ncccc1-c1cnc2ccc(NC(=O)N[C@H](C)CCCc3ccccc3)nc2n1 [Compound 161] ?
161 to 163 °C

Quick one: melting point for C[C@H](CCCc1ccccc1)NC(=O)Nc1ccc2ncc(N3CCOCC3)nc2n1 [Compound 166] ?
201 to 203 °C

Quick one: melting point for O=C(NCCCCc1ccccc1)Nc1ccc2ncc(-c3ccccc3O)nc2n1 [Compound 133] ?
247 to 248 °C

Quick one: melting point for C[C@H](CCCc1ccccc1)NC(=O)Nc1ccc2ncc(-c3cccnc3)nc2n1 [Compound 150] ?
218 to 220 °C

Quick one: melting point for CC(=O)Oc1ccc(-c2cnc3ccc(NC(=O)NCCCCc4ccccc4)nc3n2)cc1 [Compound 107] ?
220 °C

Quick one: melting point for CSc1ccc(-c2cnc3ccc(NC(=O)NCCCCc4ccccc4)nc3n2)cc1 [Compound 137] ?
227 to 230 °C

Quick one: melting point for O=C(NCCCCc1ccccc1)Nc1ccc2ncc(-c3ccc(F)cc3O)nc2n1 [Compound 144] ?
248 to 249 °C

Quick one: melting point for C[C@H](CCCc1ccccc1)NC(=O)Nc1ccc2ncc(N3CCCC3)nc2n1 [Compound 173] ?
187 to 190 °C

Quick one: melting point for COc1ccccc1-c1cnc2ccc(NC(=O)NCCCCc3ccccc3)nc2n1 [Compound 124] ?
173 to 177 °C

Quick one: melting point for N#Cc1cccc(-c2cnc3ccc(NC(=O)NCCCCc4ccccc4)nc3n2)c1 [Compound 138] ?
237 to 240 °C

Quick one: melting point for CN1CCN(c2cnc3ccc(NC(=O)NCCCCc4ccccc4)nc3n2)CC1 [Compound 93] ?
181 to 183 °C
